As shown below, each of these molecules has a reported EC50 value.
# target desc: Voltage-dependent T-type calcium channel subunit alpha-1H (Homo sapiens, UniProt O95180);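 also: channel activity triggered by adding a high calcium stimulation buffer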
# Sequence (O95180 whole entry): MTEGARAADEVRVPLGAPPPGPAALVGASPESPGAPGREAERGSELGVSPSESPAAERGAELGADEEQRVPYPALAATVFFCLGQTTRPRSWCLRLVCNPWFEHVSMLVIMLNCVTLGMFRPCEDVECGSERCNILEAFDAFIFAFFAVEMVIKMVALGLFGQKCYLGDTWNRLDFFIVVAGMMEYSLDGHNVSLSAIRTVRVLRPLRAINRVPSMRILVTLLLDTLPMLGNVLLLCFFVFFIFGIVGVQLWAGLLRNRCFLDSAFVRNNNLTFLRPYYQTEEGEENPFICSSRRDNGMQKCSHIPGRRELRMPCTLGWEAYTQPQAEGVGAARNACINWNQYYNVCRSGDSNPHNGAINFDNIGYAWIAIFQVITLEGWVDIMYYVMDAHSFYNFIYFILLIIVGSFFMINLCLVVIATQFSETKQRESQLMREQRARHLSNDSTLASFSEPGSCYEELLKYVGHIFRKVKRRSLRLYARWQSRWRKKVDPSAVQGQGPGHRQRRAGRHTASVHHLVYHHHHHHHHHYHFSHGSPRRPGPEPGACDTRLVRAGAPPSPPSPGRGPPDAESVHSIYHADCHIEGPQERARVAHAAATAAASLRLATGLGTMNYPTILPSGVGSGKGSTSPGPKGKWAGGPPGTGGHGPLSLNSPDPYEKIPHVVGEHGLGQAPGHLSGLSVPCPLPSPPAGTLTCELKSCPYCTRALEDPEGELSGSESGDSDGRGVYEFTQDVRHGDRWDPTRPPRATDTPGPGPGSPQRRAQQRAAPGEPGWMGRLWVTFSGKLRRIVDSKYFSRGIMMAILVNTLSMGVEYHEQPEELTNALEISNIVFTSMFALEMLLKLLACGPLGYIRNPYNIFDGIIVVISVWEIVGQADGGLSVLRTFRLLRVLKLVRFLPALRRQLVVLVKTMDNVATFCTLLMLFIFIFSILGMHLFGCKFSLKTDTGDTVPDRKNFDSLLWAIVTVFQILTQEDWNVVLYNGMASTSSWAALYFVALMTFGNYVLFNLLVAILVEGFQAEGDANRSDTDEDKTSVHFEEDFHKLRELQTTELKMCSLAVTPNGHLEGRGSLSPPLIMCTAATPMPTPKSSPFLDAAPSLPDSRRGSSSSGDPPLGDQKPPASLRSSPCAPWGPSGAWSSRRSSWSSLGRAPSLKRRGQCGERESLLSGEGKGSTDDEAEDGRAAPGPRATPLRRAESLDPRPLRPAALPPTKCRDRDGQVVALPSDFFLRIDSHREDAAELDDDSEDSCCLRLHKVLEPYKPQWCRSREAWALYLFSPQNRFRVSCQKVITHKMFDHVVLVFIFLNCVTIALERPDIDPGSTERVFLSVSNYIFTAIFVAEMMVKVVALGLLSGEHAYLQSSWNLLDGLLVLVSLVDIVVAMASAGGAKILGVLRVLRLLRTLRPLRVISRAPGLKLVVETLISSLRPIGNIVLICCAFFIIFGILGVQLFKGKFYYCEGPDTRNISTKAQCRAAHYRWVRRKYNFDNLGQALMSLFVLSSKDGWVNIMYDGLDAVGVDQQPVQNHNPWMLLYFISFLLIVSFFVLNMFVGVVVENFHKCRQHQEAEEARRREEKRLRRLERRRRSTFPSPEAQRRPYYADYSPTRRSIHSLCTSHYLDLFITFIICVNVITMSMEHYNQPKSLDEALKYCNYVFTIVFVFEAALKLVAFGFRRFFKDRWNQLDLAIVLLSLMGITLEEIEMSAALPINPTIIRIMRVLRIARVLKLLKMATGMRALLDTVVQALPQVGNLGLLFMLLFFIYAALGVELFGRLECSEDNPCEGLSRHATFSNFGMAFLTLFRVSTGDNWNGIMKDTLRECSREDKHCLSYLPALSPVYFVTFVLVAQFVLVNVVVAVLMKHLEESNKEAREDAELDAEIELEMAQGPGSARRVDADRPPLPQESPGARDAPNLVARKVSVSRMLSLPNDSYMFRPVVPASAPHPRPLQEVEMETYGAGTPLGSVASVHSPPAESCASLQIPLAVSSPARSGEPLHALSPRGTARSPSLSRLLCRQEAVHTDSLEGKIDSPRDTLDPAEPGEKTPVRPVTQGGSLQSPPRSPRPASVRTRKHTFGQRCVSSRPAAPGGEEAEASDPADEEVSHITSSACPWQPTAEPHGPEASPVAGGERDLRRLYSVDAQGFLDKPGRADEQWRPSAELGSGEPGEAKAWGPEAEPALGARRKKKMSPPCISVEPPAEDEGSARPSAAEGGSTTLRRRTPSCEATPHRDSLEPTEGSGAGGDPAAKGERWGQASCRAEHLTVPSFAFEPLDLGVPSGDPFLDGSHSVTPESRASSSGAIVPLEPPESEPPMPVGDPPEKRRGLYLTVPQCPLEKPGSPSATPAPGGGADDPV
# Type: functional
Activity calls are given as the source filed them.

Solved cases (4 shown):
>>> df
                                   molecule            result
0  Cc1ccc(S(=O)(=O)NC(=O)c2ccc(-c3ccc(-c4ccccc4)cc3)o2)c(C)c1  3.33 µM (active)
1  O=S(=O)(c1cccc(S(=O)(=O)N2CCC(Cc3ccccc3)CC2)c1)N1CCOCC1  8.09 µM (active)
2      Cc1cccc(N2CCN(CC(=O)Nc3nccs3)CC2)c1C  6.29 µM (active)
3  Cc1ccccc1N1CCN(C(=O)c2ccc(Oc3ccc(C(F)(F)F)cn3)cc2)CC1  5.89 µM (active)

Could you now consider this next molecule?
**Q:** Recorded EC50 of CC1Cc2ccccc2N1C(=O)CSc1nc2ccccc2o1 (stereo not given) , please.
**A:** 9.56 µM (active)

====

# target desc: Peroxisome proliferator-activated receptor gamma/Nuclear receptor coactivator 3 (Homo sapiens);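 also: agonist potency for raising coactivator recruitment to the receptor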
# Sequence (P37231 whole entry): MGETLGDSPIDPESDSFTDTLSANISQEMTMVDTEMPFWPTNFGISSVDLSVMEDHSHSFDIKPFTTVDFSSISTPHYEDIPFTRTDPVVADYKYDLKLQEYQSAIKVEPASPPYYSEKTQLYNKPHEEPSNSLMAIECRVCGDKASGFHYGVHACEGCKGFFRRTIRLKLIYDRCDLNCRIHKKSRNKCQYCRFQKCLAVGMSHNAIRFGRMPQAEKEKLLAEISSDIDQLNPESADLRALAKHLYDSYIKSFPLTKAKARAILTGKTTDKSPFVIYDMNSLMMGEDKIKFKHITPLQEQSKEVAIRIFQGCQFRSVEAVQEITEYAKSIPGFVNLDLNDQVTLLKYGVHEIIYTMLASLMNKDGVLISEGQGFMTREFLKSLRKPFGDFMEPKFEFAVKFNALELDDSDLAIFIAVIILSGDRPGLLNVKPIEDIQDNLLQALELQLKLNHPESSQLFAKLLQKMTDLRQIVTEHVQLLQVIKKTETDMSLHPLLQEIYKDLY
# Sequence (Q9Y6Q9 whole entry, further chain): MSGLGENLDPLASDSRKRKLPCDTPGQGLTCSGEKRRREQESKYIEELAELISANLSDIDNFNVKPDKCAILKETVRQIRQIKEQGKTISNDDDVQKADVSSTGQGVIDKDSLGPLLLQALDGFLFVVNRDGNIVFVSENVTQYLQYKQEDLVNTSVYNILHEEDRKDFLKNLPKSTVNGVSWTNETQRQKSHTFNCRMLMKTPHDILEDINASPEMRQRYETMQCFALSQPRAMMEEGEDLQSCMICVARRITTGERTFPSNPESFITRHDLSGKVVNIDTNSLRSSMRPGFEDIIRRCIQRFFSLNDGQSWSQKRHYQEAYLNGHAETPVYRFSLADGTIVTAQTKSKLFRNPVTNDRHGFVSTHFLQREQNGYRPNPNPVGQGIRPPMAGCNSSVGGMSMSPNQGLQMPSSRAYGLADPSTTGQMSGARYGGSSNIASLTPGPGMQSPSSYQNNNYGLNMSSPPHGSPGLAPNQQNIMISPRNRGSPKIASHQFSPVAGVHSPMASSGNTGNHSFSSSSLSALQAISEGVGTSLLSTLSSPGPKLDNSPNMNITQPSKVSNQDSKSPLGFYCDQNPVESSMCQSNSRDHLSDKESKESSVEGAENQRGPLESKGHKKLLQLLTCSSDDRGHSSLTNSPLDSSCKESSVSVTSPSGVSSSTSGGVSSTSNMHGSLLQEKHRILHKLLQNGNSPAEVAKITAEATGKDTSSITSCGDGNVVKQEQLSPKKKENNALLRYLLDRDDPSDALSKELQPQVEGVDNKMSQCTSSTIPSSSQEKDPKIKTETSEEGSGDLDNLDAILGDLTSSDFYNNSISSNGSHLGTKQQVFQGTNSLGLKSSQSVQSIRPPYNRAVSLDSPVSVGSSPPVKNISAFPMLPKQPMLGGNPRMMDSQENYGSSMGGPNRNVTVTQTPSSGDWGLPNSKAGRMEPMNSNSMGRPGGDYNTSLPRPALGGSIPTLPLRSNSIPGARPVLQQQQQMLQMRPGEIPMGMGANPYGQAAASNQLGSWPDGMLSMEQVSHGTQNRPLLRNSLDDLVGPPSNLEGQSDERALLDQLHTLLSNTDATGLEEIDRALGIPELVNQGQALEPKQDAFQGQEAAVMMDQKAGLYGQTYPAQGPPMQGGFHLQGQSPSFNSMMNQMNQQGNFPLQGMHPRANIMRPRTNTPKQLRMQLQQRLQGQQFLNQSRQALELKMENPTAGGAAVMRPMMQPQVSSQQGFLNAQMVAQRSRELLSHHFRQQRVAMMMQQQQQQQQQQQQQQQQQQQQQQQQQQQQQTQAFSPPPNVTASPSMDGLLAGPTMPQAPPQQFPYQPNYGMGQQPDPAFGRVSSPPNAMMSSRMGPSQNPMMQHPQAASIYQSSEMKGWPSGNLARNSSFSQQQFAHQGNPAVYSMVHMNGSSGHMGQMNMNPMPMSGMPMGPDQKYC
# Assay type: functional
Activity calls are given as the source filed them.
assay readout: EC50

Solved cases (6 shown):
In [3]: df
Out[3]:
                                   molecule                  result
0  Cn1c(SCC(=O)Nc2cccc(Br)c2)nnc1-c1cc2ccccc2o1    18.3 µM (not active)
1    Cn1c(=O)c2c(ncn2CCNC2=NCCCCC2)n(C)c1=O  > 79.4 µM (not active)
2  CC(C)C(=O)N1C2CCC1CC(O)(c1ccc(F)cc1)C2 (stereo not drawn)  > 79.4 µM (not active)
3  Cn1cccc1-c1nc2cc(NC(=O)c3ccccc3)ccc2[nH]1  > 79.4 µM (not active)
4           Cc1ccc(CSc2nc3c(cc2C#N)CCC3)cc1    47.6 µM (not active)
5     O=C(COc1ccc2ccccc2c1)NNC(=O)Cc1ccccc1        6.57 µM (active)

**Q:** Recorded EC50 of "c1cncc(CNC2CCCC2)c1" , please.
**A:** > 79.4 µM (not active)

**Q:** Recorded EC50 of "CCc1nc2ccc(C(=O)Nc3nnc(C)s3)cc2nc1CC" , please.
**A:** > 79.4 µM (not active)

====

# target desc: Corticotropin-releasing factor receptor 2/Corticotropin-releasing factor-binding protein (Homo sapiens, UniProt P24387+Q13324)
# Sequence (Q13324 whole entry): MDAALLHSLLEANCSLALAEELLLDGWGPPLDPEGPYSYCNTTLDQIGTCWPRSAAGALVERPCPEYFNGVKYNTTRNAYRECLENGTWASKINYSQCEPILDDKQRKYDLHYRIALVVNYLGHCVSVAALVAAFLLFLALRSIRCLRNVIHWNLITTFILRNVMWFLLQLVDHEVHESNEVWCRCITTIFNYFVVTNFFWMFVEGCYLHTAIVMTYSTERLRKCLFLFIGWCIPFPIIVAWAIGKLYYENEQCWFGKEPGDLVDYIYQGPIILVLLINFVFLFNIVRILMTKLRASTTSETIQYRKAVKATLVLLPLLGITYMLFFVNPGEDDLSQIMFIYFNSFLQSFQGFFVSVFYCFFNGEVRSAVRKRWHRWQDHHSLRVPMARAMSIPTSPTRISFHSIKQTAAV
# Sequence (P24387 whole entry): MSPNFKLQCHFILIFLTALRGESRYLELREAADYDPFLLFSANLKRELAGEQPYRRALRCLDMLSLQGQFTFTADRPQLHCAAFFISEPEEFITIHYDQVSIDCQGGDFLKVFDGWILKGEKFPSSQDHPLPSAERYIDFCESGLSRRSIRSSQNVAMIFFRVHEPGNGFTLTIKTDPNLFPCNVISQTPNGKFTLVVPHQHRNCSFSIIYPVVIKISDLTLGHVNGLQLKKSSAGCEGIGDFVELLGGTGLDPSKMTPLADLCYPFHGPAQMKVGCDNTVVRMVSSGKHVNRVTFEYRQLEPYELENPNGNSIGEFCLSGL
# procedure text: Dose Response confirmation of uHTS hits for small molecule antagonists of the CRF-binding protein and CRF-R2 receptor complex.
# Assay type: functional
# condition context: read-out: IC50_Mean
Active and inactive are the calls of the source.
Result category, one only: yes for active, no for inactive

Answered examples (4):
                                        mol  label_class
0  O=c1c(Sc2ccccc2)c(C(F)(F)F)[nH]n1-c1ccccc1          yes
1  COc1ccc(Oc2ccc(C(F)(F)F)cc2NC(=O)c2ccc(OC)cc2)cc1          yes
2  COc1ccc(S(=O)(=O)NNC(=O)c2csc(-n3nc(C)cc3C(F)(F)F)n2)cc1           no
3  COc1ccc(NC(=O)c2cc(C(=O)Nc3ccc(OC)cc3OC)cc([N+](=O)[O-])c2)c(OC)c1           no

Now look at this entry.
**Q:** Check the results log: what was the call for "Oc1cc2ccccc2cc1-c1nnc(S)o1" ?
**A:** yes
